Every entry's value here was drawn from patent US8193203B2.

- targetUnderTest: human CXCR4 receptor (Homo sapiens)
- Construct: expressed in transfected cells
- Sequence (P61073 whole entry): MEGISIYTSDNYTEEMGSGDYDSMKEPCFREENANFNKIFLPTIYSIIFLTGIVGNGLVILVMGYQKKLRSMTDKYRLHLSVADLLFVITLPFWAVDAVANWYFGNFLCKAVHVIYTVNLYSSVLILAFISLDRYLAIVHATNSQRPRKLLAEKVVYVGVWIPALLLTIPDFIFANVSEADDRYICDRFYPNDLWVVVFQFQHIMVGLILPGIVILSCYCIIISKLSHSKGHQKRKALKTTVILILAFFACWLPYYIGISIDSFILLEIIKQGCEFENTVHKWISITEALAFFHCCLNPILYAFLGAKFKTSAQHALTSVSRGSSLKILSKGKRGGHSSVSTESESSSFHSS
- methodNotes: Measurement of intracellular Ca+2 responses (FLIPR), antagonism of the SDF-1α response
- Format: cell-based
- testContext: HEK-Gqi5 cells stably expressing human CXCR4; Fluo-4 FLIPR; antagonism of SDF-1α 1.9 nM (EC65); values in nM
reportedProperty: IC50 (nM)
Answer format: numeric, nM implied, no suffix.

Summary for this molecule, COc1cccc(N(C)C)c1CN1CCC(Nc2nc(NCCN(C)C)nc3ccccc23)CC1 : IC50 is 118

Looking up COc1cc2nc(NCCCN(C)C)nc(NC3CCN(Cc4ccccc4N(C)C(C)C)CC3)c2cc1OC , I see its IC50 listed as 695

Data point: COc1cc2nc(NC[C@@H]3CCNC3)nc(NC3CCN(Cc4c(OCCN(C)C)cccc4N(C)C)CC3)c2cc1OC ; IC50 = 84

In plain terms, COc1cc2nc(NCc3ncc[nH]3)nc(NC3CCN(Cc4c(OCCN(C)C)cccc4N(C)C)CC3)c2cc1OC has a documented IC50 of 30
